- assayed system: EGFR (Homo sapiens (Human))
- Sequence (P00533 25-1210): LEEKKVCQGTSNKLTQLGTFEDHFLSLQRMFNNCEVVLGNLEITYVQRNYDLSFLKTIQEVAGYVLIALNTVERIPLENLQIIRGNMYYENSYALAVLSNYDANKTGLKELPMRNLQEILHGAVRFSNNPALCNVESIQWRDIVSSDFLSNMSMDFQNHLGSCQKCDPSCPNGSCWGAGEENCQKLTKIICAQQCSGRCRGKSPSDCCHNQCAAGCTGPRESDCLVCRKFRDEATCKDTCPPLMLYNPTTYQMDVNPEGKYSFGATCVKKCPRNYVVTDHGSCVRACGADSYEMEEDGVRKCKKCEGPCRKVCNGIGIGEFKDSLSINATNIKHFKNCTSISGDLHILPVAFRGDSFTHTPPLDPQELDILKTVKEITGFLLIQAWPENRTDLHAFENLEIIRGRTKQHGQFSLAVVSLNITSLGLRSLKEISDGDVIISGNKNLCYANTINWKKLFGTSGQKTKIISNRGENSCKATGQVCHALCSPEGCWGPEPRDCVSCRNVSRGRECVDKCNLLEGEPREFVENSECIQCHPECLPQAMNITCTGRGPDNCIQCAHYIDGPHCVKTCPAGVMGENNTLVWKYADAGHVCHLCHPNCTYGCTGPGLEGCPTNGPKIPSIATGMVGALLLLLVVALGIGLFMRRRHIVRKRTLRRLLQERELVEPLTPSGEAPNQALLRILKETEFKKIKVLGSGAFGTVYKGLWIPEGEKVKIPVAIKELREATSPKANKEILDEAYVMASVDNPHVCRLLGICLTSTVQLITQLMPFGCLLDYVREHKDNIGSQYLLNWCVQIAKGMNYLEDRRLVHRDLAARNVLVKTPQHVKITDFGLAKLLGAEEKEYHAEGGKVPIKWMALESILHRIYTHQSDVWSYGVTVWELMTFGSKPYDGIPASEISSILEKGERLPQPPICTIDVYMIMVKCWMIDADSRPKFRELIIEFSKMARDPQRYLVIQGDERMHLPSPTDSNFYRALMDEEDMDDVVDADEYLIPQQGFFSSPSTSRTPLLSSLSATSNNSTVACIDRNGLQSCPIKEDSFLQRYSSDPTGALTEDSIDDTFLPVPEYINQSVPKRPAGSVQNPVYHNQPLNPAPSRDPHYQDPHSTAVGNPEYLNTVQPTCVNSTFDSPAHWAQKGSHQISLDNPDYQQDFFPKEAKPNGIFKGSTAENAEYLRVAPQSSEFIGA
- method notes: Kinase inhibition, Mobility Shift Assay (EGFR)
- Type: biochemical
Let's look at some compounds and their measured IC50.

>  <molecular string>
CNC(=O)c1ccccc1Sc1ccc2c(Nc3ccc(OCCN4CCCC4)cn3)n[nH]c2c1

>  <measurement>
6000 to 60000 nM

$$$$
>  <molecular string>
O=C(NC1CC1)c1ccccc1Sc1ccc2c(/C=C/c3cc(OCCN4CCCC4)ccn3)n[nH]c2c1

>  <measurement>
6000 to 60000 nM

$$$$
>  <molecular string>
CCN(CC)CCc1ccc(/C=C/c2n[nH]c3cc(Sc4cc(F)ccc4C(=O)NC4CC4)ccc23)nc1

>  <measurement>
6000 to 60000 nM

$$$$
>  <molecular string>
CCNC(=O)c1cc(F)ccc1Sc1ccc2c(/C=C/c3cnn(CCCN4CCCC4)c3)n[nH]c2c1

>  <measurement>
> 60000 nM

$$$$
>  <molecular string>
CNC(=O)c1cc(F)ccc1Sc1ccc2c(/C=C/c3cnn(CCCN4CCCC4)c3)n[nH]c2c1

>  <measurement>
6000 to 60000 nM

$$$$
>  <molecular string>
O=C(NC1CC1)c1ccccc1Sc1ccc2c(C#Cc3ccc(OCCN4CCCC4)cn3)n[nH]c2c1

>  <measurement>
> 60000 nM

$$$$

Now for the compound whose IC50 we want.
Find the measured IC50 of "CNC(=O)c1ccc(F)cc1Sc1ccc2c(/C=C/c3ccc(OCCN4CCCC4)cn3)n[nH]c2c1" and report it. 6000 to 60000 nM

###

- method notes: Thermodynamic solubility assay
- condition label: aqueous buffer, pH 2, aqueous buffer, thermodynamic from solid
reported endpoint: solubility at 8 h (µg/mL)

[I] CNC(=O)c1ccccc1Sc1ccc2c(/C=C/c3ccc(OCC4CCCN4)cn3)n[nH]c2c1 (centres unmarked)
[II] CNC(=O)c1cc(F)ccc1Sc1ccc2c(/C=C/c3cnn(CCCN4CCCC4)c3)n[nH]c2c1
I'm curious, which of these has a smaller solubility at 8 h number: I or II ? Write down the label attached to your selection. I
(I: 46.8 µg/mL, II: 1580 µg/mL)

###

- assayed system: KDR (VEGFR2) (Homo sapiens (Human), UniProt P35968)
- Sequence (P35968 790-1356): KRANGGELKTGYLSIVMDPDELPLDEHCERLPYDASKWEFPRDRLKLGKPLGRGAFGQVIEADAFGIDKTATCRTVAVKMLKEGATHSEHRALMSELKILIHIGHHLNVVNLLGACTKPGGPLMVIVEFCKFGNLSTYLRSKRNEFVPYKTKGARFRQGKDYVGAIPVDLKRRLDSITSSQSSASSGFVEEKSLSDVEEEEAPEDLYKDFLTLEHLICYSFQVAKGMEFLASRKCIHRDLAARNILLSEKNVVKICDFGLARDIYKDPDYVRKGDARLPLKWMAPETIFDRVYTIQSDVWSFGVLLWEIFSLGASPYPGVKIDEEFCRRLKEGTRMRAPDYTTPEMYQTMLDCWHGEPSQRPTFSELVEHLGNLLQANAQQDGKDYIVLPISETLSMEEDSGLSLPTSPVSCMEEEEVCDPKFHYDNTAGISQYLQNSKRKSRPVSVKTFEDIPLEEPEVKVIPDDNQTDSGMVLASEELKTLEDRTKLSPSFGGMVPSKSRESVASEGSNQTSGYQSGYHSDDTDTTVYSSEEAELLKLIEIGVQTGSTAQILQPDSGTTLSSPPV
- method notes: Kinase inhibition, Mobility Shift Assay (VEGFR2)
- Type: biochemical
reported endpoint: IC50

Sample records with IC50:
>  <compound>
O=C(NC1CC1)c1ccccc1Sc1ccc2c(/C=C/c3cc(OCCN4CCCC4)ccn3)n[nH]c2c1 [Compound I-110]

>  <IC50>
1 to 10 nM

$$$$
>  <compound>
O=C(NC1CC1)c1ccccc1Sc1ccc2c(/C=C/c3cc(CCCN4CCCC4)ccn3)n[nH]c2c1 [Compound I-120]

>  <IC50>
≤ 1 nM

$$$$
>  <compound>
CNC(=O)c1ccccc1Sc1ccc2c(/C=C/c3cnn(CCN4CCCC4)c3)n[nH]c2c1 [Compound I-9]

>  <IC50>
1 to 10 nM

$$$$
>  <compound>
CNC(=O)c1ccc(F)cc1Sc1ccc2c(/C=C/c3ccc(OCCN4CCCC4)cn3)n[nH]c2c1 [Compound I-35]

>  <IC50>
1 to 10 nM

$$$$
>  <compound>
CNC(=O)c1ccccc1Sc1cnc2c(/C=C/c3ccccn3)n[nH]c2c1 [Compound I-21]

>  <IC50>
10 to 100 nM

$$$$

Find the measured IC50 of CNC(=O)c1cc(F)ccc1Sc1ccc2c(/C=C/c3cnn(CCCN4CCCC4)c3)n[nH]c2c1 [Compound I-106] and report it. 1 to 10 nM

Find the measured IC50 of CNC(=O)c1ccccc1Sc1ccc2c(/C=C/c3ccc(OCCN4CCCC4)nc3)n[nH]c2c1 [Compound I-19] and report it. 1 to 10 nM
